The measurements presented in this section are drawn from patent US12220438B2.

conditions: male, Sprague-Dawley, rat, plasma, iv, 5 mg/kg
property.measured: AUC(0-inf) (ng·h/mL)
One number for each entry, in ng·h/mL.

Need AUC(0-inf) of CCCCCc1cc(O)c2c(c1)OC(C)(C)[C@@H]1CCC(C)=C[C@@H]21 [IV, tetrahydrocannabinol] , thanks. 607

====

settings: male, Sprague-Dawley, rat, plasma, iv, 5 mg/kg
property.measured: AUC(0-t)

Which AUC(0-t) is listed for CCCCCc1cc(O)c2c(c1)OC(C)(C)[C@@H]1CCC(C)=C[C@@H]21 [IV, tetrahydrocannabinol] ? 575 ng·h/mL

====

conditions: male, Sprague-Dawley, rat, plasma, iv, 5 mg/kg, t1/2, THC in plasma, intravenously, 5 mg/kg single dose
property.measured: half-life (h)
Numbers only, in h.

Would you kindly share the measured half-life for CCCCCc1cc(O)c2c(c1)OC(C)(C)[C@@H]1CCC(C)=C[C@@H]21 [IV, tetrahydrocannabinol] ? 10.8
